Test system: TNF alpha production in LPS-stimulated human blood (Buffy coat)
Assay: TNF alpha production by stimulation with LPS in whole blood cultures
Assay type: cell-based
Conditions: Homo sapiens; Table 1B, Formula I compounds; read-out: IC50 h TNFα
Description: Compounds were assayed to generate IC50 numbers as described in Example 54, using the following assay protocol (see Tables 3B and 4B for compounds and results). Protocol • 1) Obtained 20 mM DMSO aliquots of desired concentrations of compounds (see Tables 3B and 4B for compounds tested and results). Placed 2 μl/well compound in DMSO in the top row of the dilution plate. Added 98 μl of RPMI 1640 media w/2.5% heat inactivated FBS. 2) Made the same media with 2% DMSO in it. […]
pIC50: −log10 of the molar value.
Below is a list of entries, each paired with its recorded pIC50 value.

[[record]]
molecule = "CC(C)Nc1sc(C(=O)c2cc(-c3ccc(Cl)c(Cl)c3)no2)c(N)c1C#N [Compound 1-225]"
result = "< 5.00"

[[record]]
molecule = "CC(C)Nc1sc(C(=O)c2cc(-c3ccccc3)no2)c(N)c1C#N [Compound 1-205]"
result = "< 5.00"

[[record]]
molecule = "NC(=O)c1c(N)sc(C(=O)c2cc(-c3ccccc3)no2)c1N [Compound 1-255]"
result = "< 5.00"

[[record]]
molecule = "NC(=O)c1c(NC2CCCC2)sc(C(=O)c2cc(-c3ccc(N)cc3)no2)c1N [Compound 1-253]"
result = "< 5.00"


## Input Please report the recorded pIC50 for Cc1nc(-c2cnccn2)sc1C(=O)c1sc(NC2CCCC2)c(C#N)c1N [Compound 1-219] .
## Output > 5.00

## Input Which pIC50 value is on record for CC(C)C(C)Nc1sc(C(=O)c2cc(-c3ccccc3)no2)c(N)c1C#N (centres unmarked) [Compound 1-223] ?
## Output < 5.00

## Input Item under review: COc1ccc(Nc2sc(C(=O)c3ccccc3Cl)c(N)c2C#N)cc1 [Compound 1-110] . Reported pIC50?
## Output > 5.00

## Input Consider the molecule shown here: Cc1nc(-c2cnccn2)sc1C(=O)c1sc(NC2CCCC2)c(C(N)=O)c1N [Compound 1-252] What is its recorded pIC50?
## Output < 5.00

====

Target: full-length human PDE4D5 isozyme (Homo sapiens)
Construct: The full-length human PDE4D5 isozyme; His6 (N); TEV cleavage site (N); made in house; host or cells: baculovirus infected insect cells (unpurified lysate)
Sequence (Q08499 1-745 isoform Q08499-6): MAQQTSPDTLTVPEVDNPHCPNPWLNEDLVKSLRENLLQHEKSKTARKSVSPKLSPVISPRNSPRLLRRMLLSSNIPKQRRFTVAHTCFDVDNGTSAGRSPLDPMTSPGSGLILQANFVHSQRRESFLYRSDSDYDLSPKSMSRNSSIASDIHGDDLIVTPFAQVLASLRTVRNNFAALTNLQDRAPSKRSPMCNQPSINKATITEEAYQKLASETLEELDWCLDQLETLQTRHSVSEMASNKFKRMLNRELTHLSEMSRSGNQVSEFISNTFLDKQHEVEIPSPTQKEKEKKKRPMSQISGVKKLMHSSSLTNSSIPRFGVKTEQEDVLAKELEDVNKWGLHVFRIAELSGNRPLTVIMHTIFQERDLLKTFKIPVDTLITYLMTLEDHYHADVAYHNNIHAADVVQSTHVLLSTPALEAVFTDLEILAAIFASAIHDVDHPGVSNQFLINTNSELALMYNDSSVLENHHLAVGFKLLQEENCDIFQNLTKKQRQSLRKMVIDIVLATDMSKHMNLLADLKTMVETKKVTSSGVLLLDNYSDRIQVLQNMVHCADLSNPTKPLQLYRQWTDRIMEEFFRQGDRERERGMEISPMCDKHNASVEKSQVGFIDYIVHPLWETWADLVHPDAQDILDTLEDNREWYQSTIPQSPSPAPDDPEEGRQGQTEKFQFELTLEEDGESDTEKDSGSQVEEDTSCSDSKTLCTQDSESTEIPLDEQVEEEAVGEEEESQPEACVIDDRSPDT
Assay: PDE4 IC50 determination by Scintillation Proximity Assay, PDE4D5
Format: biochemical
Settings: Table 1B, Formula I compounds; read-out: IC50 PDE4D5
pIC50: −log10 of the molar value.
test.readout: pIC50

Record excerpt, results attached:
[[record]]
molecule = "Cc1onc(-c2ccccc2)c1C(=O)c1sc(NC2CCCC2)c(C#N)c1N"
result = "> 5.00"

[[record]]
molecule = "Cc1nc(-c2cnccn2)sc1C(=O)c1sc(NC2CCCC2)c(C(N)=O)c1N"
result = "> 5.00"

[[record]]
molecule = "N#Cc1c(Nc2ccc(Cl)cc2)sc(C(=O)c2sccc2Cl)c1N"
result = "> 5.00"

[[record]]
molecule = "N#Cc1c(NC2CCCC2)sc(C(=O)c2cc(-c3ccc(Cl)cc3Cl)no2)c1N"
result = "< 5.00"

[[record]]
molecule = "CCOC(=O)c1c(Nc2ccccc2OC)sc(C(=O)c2ccc(Br)cc2)c1N"
result = "> 5.00"


## Input Entry `N#Cc1c(NC2CCCC2)sc(C(=O)c2cc(-c3ccc([N+](=O)[O-])cc3)no2)c1N` has what pIC50?
## Output < 5.00

## Input Data request, read-out pIC50, for `COc1ccc(OC)c(C(=O)c2sc(NC3CCCC3)c(C#N)c2N)c1`
## Output > 5.00

## Input Return reported pIC50; argument: `COc1ccccc1Nc1sc(C(=O)c2ccc(C)cc2)c(N)c1C#N`
## Output > 5.00

## Input Entry under review: `N#Cc1c(NC2CCCC2)sc(C(=O)c2cc(-c3ccc(Cl)c(Cl)c3)no2)c1N` . Reported pIC50?
## Output < 5.00

## Input Endpoint output: pIC50 of CC(C)C(C)Nc1sc(C(=O)c2cc(-c3ccc(Cl)c(Cl)c3)no2)c(N)c1C#N (stereo not shown) . Value?
## Output < 5.00

## Input GET /values?readout=pIC50&item= `N#Cc1c(NCc2ccccc2)sc(C(=O)c2cc(-c3ccccc3)no2)c1N`
## Output < 5.00

## Input Look at this molecule and give its reported pIC50. `CC(C)CNc1sc(C(=O)c2cc(-c3ccc(Cl)c(Cl)c3)no2)c(N)c1C#N`
## Output < 5.00
